The origin of these recorded values is ChEMBL document CHEMBL4152269.

Known inhibition of growth at 50 µM of a selection of compounds
Test system: Staphylococcus aureus
Assay: Growth inhibition of Staphylococcus aureus ATCC 25923 at 50 uM after 24 hrs by broth microdilution method relative to control
Assay type: functional
Conditions: ATCC 25923, 24 h, read-out: GI
Assay Readout: inhibition of growth at 50 µM (%)

{"Chemical Structure": "COC(=O)[C@H](C)NC(=O)c1ccc(NC(=O)c2[nH]c(C)c(Cl)c2Cl)c(OC(C)C)c1", "Assay Readout": "inhibition of growth at 50 µM", "Reading": -45}
{"Chemical Structure": "CC(C)Oc1cc(NC(=O)c2cc(Br)c(Br)[nH]2)ccc1C(=O)NCC(=O)O", "Assay Readout": "inhibition of growth at 50 µM", "Reading": 13}
{"Chemical Structure": "Cc1[nH]c(C(=O)Nc2ccc(C(=O)N[C@@H](C)C(=O)NN)cc2OCCNC(=O)OC(C)(C)C)c(Cl)c1Cl", "Assay Readout": "inhibition of growth at 50 µM", "Reading": 7}
{"Chemical Structure": "COC(=O)[C@@H](NC(=O)c1ccc(NC(=O)c2cc(Br)c(Br)[nH]2)c(OC(C)C)c1)C(C)C", "Assay Readout": "inhibition of growth at 50 µM", "Reading": 33}
{"Chemical Structure": "COC(=O)[C@H](Cc1ccccc1)NC(=O)c1ccc(NC(=O)c2[nH]c(C)c(Cl)c2Cl)c(OC(C)C)c1", "Assay Readout": "inhibition of growth at 50 µM", "Reading": -3}
{"Chemical Structure": "COC(=O)[C@H](C)NC(=O)c1ccc(NC(=O)c2[nH]c(C)c(Cl)c2Cl)c(OCCN)c1", "Assay Readout": "inhibition of growth at 50 µM", "Reading": 82}
{"Chemical Structure": "Cc1[nH]c(C(=O)Nc2ccc(C(=O)NCC(=O)O)c(OC(C)C)c2)c(Cl)c1Cl", "Assay Readout": "inhibition of growth at 50 µM", "Reading": -9}
{"Chemical Structure": "Cc1[nH]c(C(=O)Nc2ccc(C(=O)N[C@H](C)C(=O)O)cc2OC(C)C)c(Cl)c1Cl", "Assay Readout": "inhibition of growth at 50 µM", "Reading": 59}
{"Chemical Structure": "CC(C)Oc1cc(C(=O)N[C@@H](C)C(=O)O)ccc1NC(=O)c1cc(Br)c(Br)[nH]1", "Assay Readout": "inhibition of growth at 50 µM", "Reading": -18}
{"Chemical Structure": "Cc1[nH]c(C(=O)Nc2ccc(C(=O)N[C@@H](C)C(=O)O)cc2OCCNC(=O)OC(C)(C)C)c(Cl)c1Cl", "Assay Readout": "inhibition of growth at 50 µM", "Reading": -11}
{"Chemical Structure": "COC(=O)[C@H](C)NC(=O)c1ccc(NC(=O)c2cc(Br)c(Br)[nH]2)c(OC(C)C)c1", "Assay Readout": "inhibition of growth at 50 µM", "Reading": 42}
{"Chemical Structure": "CC(C)(C)OC(=O)NCCOc1cc(C(=O)NCC(=O)O)ccc1NC(=O)c1cc(Br)c(Br)[nH]1", "Assay Readout": "inhibition of growth at 50 µM", "Reading": 7}
{"Chemical Structure": "Cc1[nH]c(C(=O)Nc2ccc(C(=O)N[C@@H](C)C(=O)O)cc2OC(C)C)c(Cl)c1Cl", "Assay Readout": "inhibition of growth at 50 µM", "Reading": -21}
{"Chemical Structure": "Cc1[nH]c(C(=O)Nc2ccc(C(=O)N[C@@H](C)c3n[nH]c(=O)o3)cc2OCCNC(=O)OC(C)(C)C)c(Cl)c1Cl", "Assay Readout": "inhibition of growth at 50 µM", "Reading": 3}
{"Chemical Structure": "COC(=O)CNC(=O)c1ccc(NC(=O)c2[nH]c(C)c(Cl)c2Cl)cc1OC(C)C", "Assay Readout": "inhibition of growth at 50 µM", "Reading": -5}
{"Chemical Structure": "NCCOc1cc(C(=O)N[C@@H](Cc2ccccc2)C(=O)O)ccc1NC(=O)c1cc(Br)c(Br)[nH]1", "Assay Readout": "inhibition of growth at 50 µM", "Reading": 20}
{"Chemical Structure": "NCCOc1cc(C(=O)NCC(=O)O)ccc1NC(=O)c1cc(Br)c(Br)[nH]1", "Assay Readout": "inhibition of growth at 50 µM", "Reading": -2}
